# Lookup of reported normalized growth keyed by entry
Assay: chemical genetic growth profiling, strain panel (AID 1159580);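 note: tested at 20 µM; growth read once vehicle control cultures reached saturation at 30 °C; 1 = growth at the plate median or of vehicle wells; lower values mean less growth of the strain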
Conditions: S. cerevisiae deletion strains, growth OD, locus YKL068W, active compounds read low
The campaign covered roughly 5,500 compounds. About 2,000 (36%) were called active. About 18% were inconclusive and are not listed. This is one part of the list.

* O=C1c2ccc(O)cc2O[C@H](c2cc(O)c(O)c(O)c2)[C@H]1O | 1.02 (inactive)
* C=C1C2CC[C@@]3(C)[C@H](c4ccoc4)OC(=O)C[C@]13O[C@H]1CC(=O)C(C)(C)[C@H](C(OC(C)=O)C(=O)OC)[C@@]21C (stereo not given in full) | 1 (inactive)
* Oc1cc(O)c2c(c1)O[C@H](c1ccc(O)c(O)c1)[C@H](O)C2 | 0.979 (inactive)

[in] Query (molecule): `Oc1cc(O)c2c(c1)O[C@H](c1cc(O)c(O)c(O)c1)[C@H](O)C2` ; field requested: normalized growth
[out] 1 (inactive)

[in] One more molecule: `COc1ccc([C@H]2Oc3c(I)c(OC)cc(OC)c3C[C@@H]2O)cc1OC`
[out] 0.976 (inactive)

###

# Lookup of reported normalized growth keyed by entry
Assay: chemical genetic growth profiling, strain panel (AID 1159580)
Details: S. cerevisiae deletion strains, growth OD, locus YDR392W, strain spt3, active compounds read low
Screen size: about 5,500 compounds; about 2,000 (36%) were called active. Not shown: some 18% with an inconclusive outcome. The list shows a part of the results.
Keep the answer to the number alone.

Solved entries (count: 5):
- O=C(O)CCCc1ccccc1: 0.963
- O=C(Oc1cc(O)cc2c1C[C@@H](OC(=O)c1cc(O)c(O)c(O)c1)[C@@H](c1cc(O)c(O)c(O)c1)O2)c1cc(O)c(O)c(O)c1: 1.02
- O=C1NCC2(CCN(CCc3ccccc3)CC2)O1: 1.02
- COc1cc2nc(N(C)CCCNC(=O)C3CCCO3)nc(N)c2cc1OC (stereo not given): 1.01
- O=C(O[C@@H]1Cc2c(O)cc(O)cc2O[C@@H]1c1ccc(O)c(O)c1)c1cc(O)c(O)c(O)c1: 1.01

[in] Query (compound): COc1cc([C@@H]2c3cc4c(cc3[C@@H](O)C3COC(=O)C32)OCO4)cc(OC)c1O (stereo not given in full) ; field requested: normalized growth
[out] 1.01

[in] One more compound: `CN1CCC(OC(c2ccccc2)c2ccccc2)CC1`
[out] 0.935

[in] One more compound: COc1ccc2c(c1)OC1(O)COc3cc(OC)c(OC)cc3C1=C2 (stereo not given)
[out] 0.734

[in] One more compound: `OCCc1ccccc1`
[out] 0.999

[in] One more compound: `CC(=O)Oc1cc(OC(C)=O)c2c(c1)O[C@H](c1ccc(OC(C)=O)c(OC(C)=O)c1)[C@@H](OC(C)=O)C2`
[out] 0.927

###

Experiment: chemical genetic growth profiling, strain panel (AID 1159580)
Settings: S. cerevisiae deletion strains, growth OD, locus YOR069W, strain VPS5, active compounds read low
Out of some 5,500 compounds screened, about 2,000 (36%) were called active. Roughly 18% stayed inconclusive and do not appear here. The list shows a part of the results.
Measurement Type: normalized growth
Keep the answer to the number alone.

• COC(=O)c1cc(=O)c(O)c2c(O)c(O)ccc2c1 = 0.796
• CCC(C)C(=O)O[C@@H]1C[C@@]2(C)[C@H](c3ccoc3)OC(=O)CC23OC2(C)O[C@]14[C@]1(C)[C@@H](CC(=O)OC)C5(C)CC1(O)[C@](O)(C5OC(=O)C1(C)OC1C)[C@@H](OC(C)=O)[C@]34O2 (stereo partly drawn) = 1.01
• C#CCN(C)Cc1ccccc1 = 1
• CN1CC(=O)N=C1N = 1.01
• O=c1cccc2ccc(O)c(O)c2c1O = 0.176
• C/C=C(\C)C(=O)O[C@H]1C[C@@H](OC(C)=O)[C@@]2(C(=O)OC)CO[C@@H]3C2[C@]12CO[C@](O)(C(=O)OC)[C@H]2[C@](C)(C12O[C@@]1(C)[C@H]1C[C@@H]2OC2OC=C[C@@]21O)[C@@H]3O (stereo partly drawn) = 0.982
• C=C[C@@](C)(O)CCC1C(=C)C[C@H](OC(C)=O)C2C(C)(C)CCCC12C (stereo partly drawn) = 1.01

Alright, here's another molecule for you.
[in] Query (molecule): CC(=O)O[C@H]1C[C@@H](OC(C)=O)C(C)(C)C2CC(=O)[C@]3(C)C(CC[C@@]4(C)[C@H](C(=O)O)OC(=O)C5OC543)[C@]21C (stereo partly drawn) ; field requested: normalized growth
[out] 0.99

###

Experiment: chemical genetic growth profiling, strain panel (AID 1159580)
Details: S. cerevisiae strains, growth OD, strain wild type, active compounds read low
The whole screen tested about 5,500 compounds, of which about 2,000 (36%) were called active. Not shown: some 18% with an inconclusive outcome. The list shows a part of the results.
Measurement Type: normalized growth
Keep the answer to the number alone.

[in] Query (compound): `CSc1nc(N)n(-c2ccccc2)n1` ; field requested: normalized growth
[out] 1.01

[in] One more compound: C[C@]12CCC(=O)C=C1C=CC1C2CC[C@@]2(C)C1CC[C@@]2(O)CCC(=O)O (stereo not given in full)
[out] 1

[in] One more compound: O=C1CCC(N2C(=O)c3ccccc3C2=O)C(=O)N1 (stereo not given)
[out] 1.01

[in] One more compound: CC(=O)S[C@@H]1CC2=CC(=O)CC[C@]2(C)[C@H]2CC[C@@]3(C)[C@@H](CC[C@@]34CCC(=O)O4)C12 (stereo not given in full)
[out] 1

[in] One more compound: `O=C(NNC(=S)Nc1cccc(Cl)c1)C1CC1`
[out] 0.953

###

# Lookup of reported normalized growth keyed by entry
Assay: chemical genetic growth profiling, strain panel (AID 1159580);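 note: tested at 20 µM; growth read once vehicle control cultures reached saturation at 30 °C; 1 = growth at the plate median or of vehicle wells; lower values mean less growth of the strain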
Settings: S. cerevisiae deletion strains, growth OD, locus YFR010W, strain ubp6, active compounds read low
In all, about 5,500 compounds went through this assay and about 2,000 (36%) were called active. Not shown: some 18% with an inconclusive outcome. This is one part of the list.
Keep the answer to the number alone.

Solved entries (count: 4):
- COC(=O)C[C@H]1C2(C)CC34OC5(C)O[C@@]6([C@H](OC(C)=O)C(OC(C)=O)[C@]7(C)C(/C(=C(/O)C(C)C)C(=O)O[C@H]7c7ccoc7)[C@@]6(O5)[C@H](OC(C)=O)[C@@]3(O)C2OC(=O)C(C)C)[C@]14C (stereo not given in full): 0.982
- CCC(C)C(=O)O[C@@H]1C[C@@]2(C)[C@H](c3ccoc3)OC(=O)CC23OC2(C)OC34[C@H](OC(=O)C(C)C)[C@@]3(O)[C@@H](OC(=O)C5(C)OC5C)[C@@]5(C)C[C@]3(O)[C@@](C)([C@H]5CC(=O)OC)C14O2 (stereo not given in full): 1.01
- O=C(Oc1cc(O)cc2c1C[C@@H](OC(=O)c1cc(O)c(O)c(O)c1)[C@@H](c1cc(O)c(O)c(O)c1)O2)c1cc(O)c(O)c(O)c1: 0.997
- O=C(Oc1cc(OC(=O)c2ccccc2)c2c(c1)O[C@H](c1ccc(OC(=O)c3ccccc3)c(OC(=O)c3ccccc3)c1)[C@@H](OC(=O)c1ccccc1)C2)c1ccccc1: 0.993

Alright, here's another molecule for you.
[in] Query (molecule): `CC(=O)Oc1cc(OC(C)=O)c2c(c1)O[C@H](c1ccc(OC(C)=O)c(OC(C)=O)c1)[C@H](OC(C)=O)C2` ; field requested: normalized growth
[out] 0.998

###

Assay: chemical genetic growth profiling, strain panel (AID 1159580);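 note: tested at 20 µM; growth read once vehicle control cultures reached saturation at 30 °C; 1 = growth at the plate median or of vehicle wells; lower values mean less growth of the strain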
Settings: S. cerevisiae deletion strains, growth OD, locus YDR388W, active compounds read low
Screen size: about 5,500 compounds; about 2,000 (36%) were called active. Not shown: some 18% with an inconclusive outcome. The list shows a part of the results.
Measurement Type: normalized growth
Keep the answer to the number alone.

* CC1CCc2cc(F)cc3c(=O)c(C(=O)O)cn1c23 (centres undefined) | 0.952

[in] Query (molecule): `CC[C@H]1OC(=O)[C@H](C)[C@@H](O[C@H]2C[C@@](C)(OC)[C@@H](O)[C@H](C)O2)[C@H](C)[C@@H](O[C@@H]2O[C@H](C)C[C@H](N(C)C)[C@H]2O)[C@](C)(OC)C[C@@H](C)C(=O)[C@H](C)[C@@H](O)[C@]1(C)O` ; field requested: normalized growth
[out] 0.986

###

Assay: chemical genetic growth profiling, strain panel (AID 1159580);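 note: tested at 20 µM; growth read once vehicle control cultures reached saturation at 30 °C; 1 = growth at the plate median or of vehicle wells; lower values mean less growth of the strain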
Details: S. cerevisiae deletion strains, growth OD, locus YLR133W, strain CKI1, active compounds read low
Screen size: about 5,500 compounds; about 2,000 (36%) were called active. Roughly 18% stayed inconclusive and do not appear here. The list shows a part of the results.
Measurement Type: normalized growth
Keep the answer to the number alone.

* CC(C)(C)c1ccc(N/N=C(\C#N)C(N)=O)cc1 | 0.0995
* O=C(/C=C/c1ccc2c(c1)OCO2)Nc1ccc(Br)cc1 | 0.96
* N#C/C(=N/Nc1ccc(F)cc1)S(=O)(=O)c1ccc(Cl)cc1 | 0.942
* CCOC(=O)C1C(c2c(F)cccc2Cl)C(C(=O)OCC)C(O)(C(F)(F)F)NC1(O)C(F)(F)F (stereo unspecified) | 0.985
* Cc1c(C(=O)Sc2ccc(F)cc2F)sc2nc(C(F)(F)F)nn12 | 0.0966

Alright, here's another compound for you.
[in] Query (compound): `Cc1cccc(NC(=S)N/N=C\c2ccc(F)cc2)c1` ; field requested: normalized growth
[out] 0.847
